pKi: −log10 of the molar value.
Multiple publications report pKi for hMC2 receptor (Homo sapiens, UniProt Q01718); what follows is a combined list.

Sample records with pKi:
molecule=CC[C@@H]1CN(C(=O)c2ccc(C(F)(F)F)cc2Cl)CCN1c1ccc(-c2ccccc2OC)cc1C(=O)NCCN measured="> 8.00"
molecule="CCOc1ncccc1-c1ccc(N2CC[C@H](Oc3ccc(F)cc3C#N)C[C@@H]2C2CC2)c(C(=O)N[C@@H]2CCN(C)C2)n1 (mixture of isomers)" measured="> 8.00"
molecule=CCOc1ccccc1-c1ccc(N2CCN(C(=O)c3ccc(Cl)cc3C(F)(F)F)C[C@H]2CC)c(C(=O)N[C@@H]2CCN(C)C2)n1 measured="> 8.00"

Req: Short answer please: pKi, hMC2 receptor (Homo sapiens, UniProt Q01718), entry `CCOc1ncccc1-c1ccc(N2CCN(C(=O)C3(C(F)F)CCCC3)C[C@H]2CC)c(C(=O)N[C@@H]2CCN(C)C2)n1`
Resp: > 8.00

Req: Short answer please: pKi, hMC2 receptor (Homo sapiens, UniProt Q01718), entry `CCOc1ncccc1-c1ccc(N2CCN(C(=O)c3ccc(OC)nc3C(F)(F)F)C[C@H]2CC)c(C(=O)N[C@H]2CN(C)C[C@H]2F)n1`
Resp: > 8.00

Req: Short answer please: pKi, hMC2 receptor (Homo sapiens, UniProt Q01718), entry `CCOc1ncccc1-c1ccc2c(c1)N(CCN)CC21CCN(c2ccc(C(F)(F)F)cc2C#N)CC1`
Resp: 7.00 to 8.00

* * *

pKi: −log10 of the molar value.
Multiple publications report pKi for hMC2 receptor (Homo sapiens, UniProt Q01718); what follows is a combined list.

Req: Tell me the measured pKi of `CCOc1ncccc1-c1ccc(N2CCN(C(=O)c3ccc(F)cc3N3CC(N)C3)C[C@H]2CC)c(C(=O)NCCN(C)C)c1` , please.
Resp: > 8.00

Req: Tell me the measured pKi of `CCOc1ncccc1-c1ccc2c(c1)N([C@H]1CCNC1)C(=O)C21CCN(c2ccc(C(F)(F)F)cc2C#N)CC1` , please.
Resp: 7.00 to 8.00

Req: Tell me the measured pKi of `CCOc1ncccc1-c1ccc(N2CCN(C(=O)c3ccc(NC)nc3C(F)(F)F)C[C@H]2CC)c(C(=O)NCCNC)c1F` , please.
Resp: > 8.00

Req: Tell me the measured pKi of `CCOc1ncccc1-c1ccc(N2CCN(C(=O)N3CCC[C@H]3C(F)(F)F)C[C@H]2CC)c(O[C@@H]2CCN(C)C2)n1` , please.
Resp: 7.00 to 8.00

Req: Tell me the measured pKi of `CCOc1ncccc1-c1ccc(N2CCN(C(=O)N3CCc4cccc(C#N)c43)C[C@H]2CC)c(OCCN)n1` , please.
Resp: > 8.00

Req: Tell me the measured pKi of CCOc1ncccc1-c1ccc(N2CCN(C(=O)OC(C(C)(C)C)C(F)(F)F)C[C@H]2CC)c(C(=O)N[C@@H]2CCN(C)C2)n1 (stereo partly shown) , please.
Resp: > 8.00

Req: Tell me the measured pKi of `CCOc1ccccc1-c1ccc(N2CCN(C(=O)N3CCC[C@H]3C(F)(F)F)C[C@H]2CC)c(C(=O)N[C@H]2CCN(C)C2)n1` , please.
Resp: > 8.00

* * *

Multiple publications report pKi for hMC2 receptor (Homo sapiens); what follows is a combined list.
pKi: −log10 of the molar value.

compound=CCOc1ncccc1-c1ccc(N2CCN(C(=O)c3ccc(OC)nc3C(F)(F)F)C[C@H]2CC)c(C(=O)NCCNC)c1F measured="> 8.00"
compound=CCOc1ncccc1-c1ccc(N2CCN(C(=O)c3ccc(F)cc3Cl)C[C@H]2CC)c(C(=O)N[C@@H]2CCNC2)c1F measured="> 8.00"
compound=CCOc1ccccc1-c1ccc(N2CCN(C(=O)c3ccc(F)cc3C(F)F)C[C@H]2CC)c(C(=O)N[C@@H]2CCN(C)C2)n1 measured="> 8.00"
compound=CCOc1ncccc1-c1ccc2c(n1)N(C[C@@H](C)N)CC21CCN(c2ccc(C(F)(F)F)cc2C#N)CC1 measured="> 8.00"

Req: Short answer please: pKi, hMC2 receptor (Homo sapiens), entry `CCOc1ncccc1-c1ccc2c(c1)N([C@@H](C)CN)CC21CCN(c2ccc(C(F)(F)F)cc2C#N)CC1`
Resp: 7.00 to 8.00

Req: Short answer please: pKi, hMC2 receptor (Homo sapiens), entry CCOc1ncccc1-c1ccc(N2CC[C@H](Oc3ccc(Cl)cc3C(F)(F)F)C[C@@H]2CC)c(C(=O)N[C@@H]2CCN(C)C2)n1 (single isomer, unassigned)
Resp: 7.00 to 8.00
